Target: 5-hydroxytryptamine receptor 1A (Rattus norvegicus, UniProt P19327)
Sequence (P19327 whole entry): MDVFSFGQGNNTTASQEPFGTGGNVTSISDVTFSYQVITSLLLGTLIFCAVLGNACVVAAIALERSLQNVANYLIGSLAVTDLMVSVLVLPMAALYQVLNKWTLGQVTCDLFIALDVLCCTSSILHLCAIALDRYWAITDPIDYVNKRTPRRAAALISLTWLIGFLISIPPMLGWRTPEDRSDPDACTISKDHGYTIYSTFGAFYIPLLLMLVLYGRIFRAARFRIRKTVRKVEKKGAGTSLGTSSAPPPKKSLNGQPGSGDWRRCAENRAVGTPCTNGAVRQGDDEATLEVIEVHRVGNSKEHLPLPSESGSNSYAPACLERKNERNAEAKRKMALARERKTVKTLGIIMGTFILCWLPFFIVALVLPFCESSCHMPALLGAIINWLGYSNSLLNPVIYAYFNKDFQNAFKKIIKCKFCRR
Test: Binding affinity towards 5-hydroxytryptamine 1A receptor binding site using [3H]8-OH-DPAT.
pIC50: −log10 of the molar value.
METRIC: pIC50

Reference set, count: 2
c1ccc(CN2CCC3(CCCc4ccccc43)CC2)cc1; < 4.00
Fc1ccc(N2CCN(CCCCc3cn(-c4ccc(F)cc4)c4ccccc34)CC2)cc1; < 5.00

Ask: I am curious: what pIC50 value has been reported for Fc1ccc(C2=CC3CCC(C2)N3CCCCc2cn(-c3ccc(F)cc3)c3ccccc23)cc1 (stereo not drawn) ?
Result: < 5.00
